Each recorded value in this set is attributed to patent US20190091332A1.

Target or system: T1, human LAG3-huFc (human, UniProt P18627 23-450, limits assumed)
T1 construct: also called human LAG3-Fc; huLAG3-huFc; not shown: human Fc (huFc)
T1 sequence: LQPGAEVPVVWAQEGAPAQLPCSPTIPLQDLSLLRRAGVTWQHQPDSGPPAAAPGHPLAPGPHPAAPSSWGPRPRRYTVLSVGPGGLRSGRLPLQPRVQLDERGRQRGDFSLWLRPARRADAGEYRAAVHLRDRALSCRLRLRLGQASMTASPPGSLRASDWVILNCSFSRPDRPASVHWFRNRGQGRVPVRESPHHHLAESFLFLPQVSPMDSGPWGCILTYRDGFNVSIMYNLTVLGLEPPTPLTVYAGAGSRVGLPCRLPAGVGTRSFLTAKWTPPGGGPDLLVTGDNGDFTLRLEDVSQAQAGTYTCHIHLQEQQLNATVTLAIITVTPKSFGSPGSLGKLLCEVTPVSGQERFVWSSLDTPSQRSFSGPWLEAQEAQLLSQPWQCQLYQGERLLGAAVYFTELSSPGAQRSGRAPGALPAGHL
Assay overview: flow cytometry competition: antibody pre-incubated with biotinylated human LAG3-huFc, its binding to Daudi cells (MHC class II) read with streptavidin-PE
Method: Mouse anti-human LAG3 and humanized anti-LAG3 clones were tested for their ability to block hLAG3 interaction with human MHC Class II. Daudi cells (ATCC #CCL-213) were used as a cell line positive for human MHC class II expression. […] Cells were washed twice as described above, resuspended in HBSS/2% BCS and read on the FACSCalibur.

{"Binder": "Hu22D2 VH6/VL3 (Ab 5) (antibody, human IgG4 S228P, kappa, V domains shown, Humanized 22D2, IgG4 S228P/kappa; also called 45AGX light chain / 57AHH heavy chain IgG4 S228P) VH: QMQLVQSGPEVKKPGTSVKVSCKASGYTFTDYNVDWVRQARGQRLEWIGDINPNNGGTIYAQKFQERVTITVDKSTSTAYMELSSLRSEDTAVYYCARNYRWFGAMDHWGQGTTVTVSS VL: DIVMTQTPLSLSVTPGQPASISCKASQSLDYEGDSDMNWYLQKPGQPPQLLIYGASNLESGVPDRFSGSGSGTDFTLKISRVEAEDVGVYYCQQSTEDPRTFGGGTKVEIKR", "IC50 / nM": 2.6}
{"Binder": "Hu22D2 VH6/VL3 N55D (Ab 6) (antibody, human IgG4 S228P, kappa, V domains shown, Humanized 22D2, IgG4 S228P/kappa; also called Hu2D2; 45AGX light chain / 73AHD heavy chain IgG4 S228P) VH: QMQLVQSGPEVKKPGTSVKVSCKASGYTFTDYNVDWVRQARGQRLEWIGDINPNDGGTIYAQKFQERVTITVDKSTSTAYMELSSLRSEDTAVYYCARNYRWFGAMDHWGQGTTVTVSS VL: DIVMTQTPLSLSVTPGQPASISCKASQSLDYEGDSDMNWYLQKPGQPPQLLIYGASNLESGVPDRFSGSGSGTDFTLKISRVEAEDVGVYYCQQSTEDPRTFGGGTKVEIKR", "IC50 / nM": 2.4}
{"Binder": "Hu22D2 VH6/VL3 N55Q (Ab 8) (antibody, human IgG4 S228P, kappa, V domains shown, Humanized 22D2, IgG4 S228P/kappa; also called 45AGX light chain / 80AHG heavy chain IgG4 S228P) VH: QMQLVQSGPEVKKPGTSVKVSCKASGYTFTDYNVDWVRQARGQRLEWIGDINPNQGGTIYAQKFQERVTITVDKSTSTAYMELSSLRSEDTAVYYCARNYRWFGAMDHWGQGTTVTVSS VL: DIVMTQTPLSLSVTPGQPASISCKASQSLDYEGDSDMNWYLQKPGQPPQLLIYGASNLESGVPDRFSGSGSGTDFTLKISRVEAEDVGVYYCQQSTEDPRTFGGGTKVEIKR", "IC50 / nM": 2.5}
{"Binder": "Hu22D2 VH6/VL3 N55S (Ab 7) (antibody, human IgG4 S228P, kappa, V domains shown, Humanized 22D2, IgG4 S228P/kappa; also called 45AGX light chain / 21AHG heavy chain IgG4 S228P) VH: QMQLVQSGPEVKKPGTSVKVSCKASGYTFTDYNVDWVRQARGQRLEWIGDINPNSGGTIYAQKFQERVTITVDKSTSTAYMELSSLRSEDTAVYYCARNYRWFGAMDHWGQGTTVTVSS VL: DIVMTQTPLSLSVTPGQPASISCKASQSLDYEGDSDMNWYLQKPGQPPQLLIYGASNLESGVPDRFSGSGSGTDFTLKISRVEAEDVGVYYCQQSTEDPRTFGGGTKVEIKR", "IC50 / nM": 2.1}
{"Binder": "22D2 Chimera ([LAG3_H] mAb (LB145.22D2.E1.D1 (VH0/VL0) Geneart) IgG4 S228P/kappa (PX)) (antibody, V domains shown, Chimeric antibody: 22D2 VH0/VL0 variable domains on human IgG4 S228P/kappa; also called Chimeric 22D2; Anti-hLAG3 clone 22D2 (chimeric antibody)) VH: EVLLLQSGPELVKPGTSVKIPCKASGYTFTDYNVDWVKQRHGKGLEWIGDINPNNGGTIYSQKFKGKATLTVDKSSSTAFMELRSLTSEDTAVYFCARNYRWFGAMDHWGQGTSVTVSS VL: DIVLTQSPASLAVSPGQRATISCKASQSLDYEGDSDMNWYQQKPGQPPRLLISGASNLESGIPARFSGSGSGTDFTVNIHPVEEEDAATYYCQQSTEDPRTFGGGTKLEIK", "IC50 / nM": 2.5}
